# maps each entry to its Activity (umolequiv/umol)
- assay remarks: Antioxidant activity assessed as trolox equivalents of AAPH radical scavenging activity at 20 uL preincubated for 10 mins followed by AAPH addition measured every min for 120 mins by ORAC-FL assay
- Format: functional
// return a plain number; no unit text

# count of solved cases: 5
COc1cc(/C=C/C(=O)O)ccc1O 3.24
OB1Oc2ccc3ccc(O)cc3c2C=C1c1ccc(O)c(O)c1 4.55
Oc1ccc(/C=C/c2cc(O)cc(O)c2)cc1 5.33
OB1Oc2ccc3ccc(O)cc3c2C=C1c1cc(O)cc(O)c1 5.34
OB1Oc2ccc3ccccc3c2C=C1c1ccc(O)cc1 2.06

Exam item: Data request, read-out Activity (umolequiv/umol), for CN(C)c1ccc2c3c(ccc2c1)OB(O)C(c1ccc(O)cc1)=C3
Marked response: 2.41

###

# maps each entry to its inhibition
- experimental system: Amyloid-beta precursor protein (Homo sapiens)
- Sequence (P05067 whole entry): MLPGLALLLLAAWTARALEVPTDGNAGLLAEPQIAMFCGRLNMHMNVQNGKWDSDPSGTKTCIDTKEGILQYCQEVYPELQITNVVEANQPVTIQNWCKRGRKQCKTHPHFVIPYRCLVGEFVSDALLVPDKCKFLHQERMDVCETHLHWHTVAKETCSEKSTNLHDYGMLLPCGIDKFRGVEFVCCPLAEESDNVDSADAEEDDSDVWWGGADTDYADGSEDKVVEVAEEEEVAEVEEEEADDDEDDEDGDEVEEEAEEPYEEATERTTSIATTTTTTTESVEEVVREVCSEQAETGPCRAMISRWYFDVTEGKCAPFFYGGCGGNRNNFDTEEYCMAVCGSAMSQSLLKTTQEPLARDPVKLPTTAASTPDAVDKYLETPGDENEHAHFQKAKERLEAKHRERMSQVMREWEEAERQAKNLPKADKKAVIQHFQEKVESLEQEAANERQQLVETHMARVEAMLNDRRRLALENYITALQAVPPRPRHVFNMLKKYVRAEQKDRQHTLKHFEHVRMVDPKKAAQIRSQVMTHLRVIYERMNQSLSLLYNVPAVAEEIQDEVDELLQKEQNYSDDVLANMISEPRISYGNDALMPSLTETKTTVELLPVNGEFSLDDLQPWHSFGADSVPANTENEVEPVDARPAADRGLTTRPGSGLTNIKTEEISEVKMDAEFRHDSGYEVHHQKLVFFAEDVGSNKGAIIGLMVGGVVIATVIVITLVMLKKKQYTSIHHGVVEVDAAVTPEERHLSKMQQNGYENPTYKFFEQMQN
- assay remarks: Inhibition of self-induced aggregation of amyloid beta (1 to 42) (unknown origin) at 20 uM after 48 hrs by thioflavin T-based fluorescence method relative to control
Entry rule: numbers only, all in %.

# count of solved cases: 8
OB1Oc2ccc3ccc(O)cc3c2C=C1c1cc(O)cc(O)c1 78.7
OB1Oc2ccc3ccc(O)cc3c2C=C1c1ccc(O)c(O)c1 82.8
OB1Oc2ccc3ccc(O)cc3c2C=C1c1ccc(O)cc1 20.5
OB1Oc2ccc3ccccc3c2C=C1c1ccc(O)cc1 0
OB1Oc2ccc(O)cc2C=C1c1ccc(O)c(O)c1 58.8
CN(C)c1ccc2c3c(ccc2c1)OB(O)C(c1ccc(O)cc1)=C3 0
OB1Oc2cc(O)ccc2C=C1c1cc(O)cc(O)c1 50.2
OB1Oc2ccc3cc(O)ccc3c2C=C1c1cc(O)cc(O)c1 70.3

Exam item: Request: inhibition, test system Amyloid-beta precursor protein (Homo sapiens), entry OB1Oc2ccc3cc(O)ccc3c2C=C1c1ccc(O)c(O)c1
Marked response: 80.5

Exam item: Request: inhibition, test system Amyloid-beta precursor protein (Homo sapiens), entry OB1Oc2ccc3ccccc3c2C=C1c1ccc(O)c(O)c1
Marked response: 43.7

Exam item: Request: inhibition, test system Amyloid-beta precursor protein (Homo sapiens), entry OB1Oc2ccc3cc(O)ccc3c2C=C1c1ccc(O)cc1
Marked response: 12.3

Exam item: Request: inhibition, test system Amyloid-beta precursor protein (Homo sapiens), entry CN(C)c1ccc2c3c(ccc2c1)OB(O)C(c1cc(O)cc(O)c1)=C3
Marked response: 32.4

Exam item: Request: inhibition, test system Amyloid-beta precursor protein (Homo sapiens), entry OB1Oc2ccc3ccccc3c2C=C1c1cc(O)cc(O)c1
Marked response: 67.3

Exam item: Request: inhibition, test system Amyloid-beta precursor protein (Homo sapiens), entry CN(C)c1ccc2c3c(ccc2c1)OB(O)C(c1ccc(O)c(O)c1)=C3
Marked response: 49.5

###

- assay remarks: Antioxidant activity assessed as trolox equivalents of AAPH radical scavenging activity at 20 uL preincubated for 10 mins followed by AAPH addition measured every min for 120 mins by ORAC-FL assay
- Format: functional
# maps each entry to its Activity (umolequiv/umol)
// return a plain number; no unit text

# count of solved cases: 2
CN(C)c1ccc2c3c(ccc2c1)OB(O)C(c1ccc(O)c(O)c1)=C3 4.88
OB1Oc2ccc3cc(O)ccc3c2C=C1c1ccc(O)cc1 3.94

Exam item: Data request, read-out Activity (umolequiv/umol), for OB1Oc2ccc3cc(O)ccc3c2C=C1c1ccc(O)c(O)c1
Marked response: 4.05

Exam item: Data request, read-out Activity (umolequiv/umol), for OB1Oc2ccc3ccc(O)cc3c2C=C1c1ccc(O)cc1
Marked response: 4.45

Exam item: Data request, read-out Activity (umolequiv/umol), for OB1Oc2cc(O)ccc2C=C1c1cc(O)cc(O)c1
Marked response: 4.84

###

# maps each entry to its Activity (umolequiv/umol)
- assay remarks: Antioxidant activity assessed as trolox equivalents of AAPH radical scavenging activity at 20 uL preincubated for 10 mins followed by AAPH addition measured every min for 120 mins by ORAC-FL assay
- Type: functional
// return a plain number; no unit text

# count of solved cases: 5
COc1ccc(/C=C/c2cc(OC)cc(OC)c2)cc1 0.21
CN(C)c1ccc2c3c(ccc2c1)OB(O)C(c1cc(O)cc(O)c1)=C3 5.27
OB1Oc2ccc(O)cc2C=C1c1ccc(O)c(O)c1 4.09
OB1Oc2ccc3cc(O)ccc3c2C=C1c1cc(O)cc(O)c1 5.87
OB1Oc2ccc3ccccc3c2C=C1c1ccc(O)c(O)c1 2.7

Kindly consider the entry below.
Exam item: Data request, read-out Activity (umolequiv/umol), for OB1Oc2ccc3ccccc3c2C=C1c1cc(O)cc(O)c1
Marked response: 3

###

- experimental system: Amyloid-beta precursor protein (Homo sapiens)
- assay remarks: Inhibition of self-induced aggregation of amyloid beta (1 to 42) (unknown origin) after 48 hrs by thioflavin T-based fluorescence method
property: pIC50
For clarity, pIC50 is expressed as the negative log10 of concentration in mol/L.

OB1Oc2ccc3cc(O)ccc3c2C=C1c1ccc(O)c(O)c1 5.34
OB1Oc2ccc3ccc(O)cc3c2C=C1c1cc(O)cc(O)c1 5.31
OB1Oc2ccc3ccccc3c2C=C1c1cc(O)cc(O)c1 4.90
OB1Oc2ccc(O)cc2C=C1c1ccc(O)c(O)c1 4.76
OB1Oc2ccc3cc(O)ccc3c2C=C1c1cc(O)cc(O)c1 5.05

Exam item: Data request, read-out pIC50, for OB1Oc2cc(O)ccc2C=C1c1cc(O)cc(O)c1
Marked response: 4.66

Exam item: Data request, read-out pIC50, for OB1Oc2ccc3ccc(O)cc3c2C=C1c1ccc(O)c(O)c1
Marked response: 5.47
